Assay: in vitro
Details: human, hela cells, % viability
ENDPOINT LABEL: viability at 28.5 h, 10 µM (%)
Write the value in % as a bare number.

Look over these answered cases.
{"columns": ["COMPOUND", "viability at 28.5 h, 10 µM / %"],
 "data": [
  ["Cc1ccccc1Nc1ccccc1C(=O)O", 113],
  ["CN1CCN(C(=O)C2CCCCC2C(=O)O)CC1 (centres unmarked)", 86.4],
  ["CCC(NS(=O)(=O)c1ccc(Br)cc1)C(=O)O (centres unmarked)", 97],
  ["CCN(CC)Cc1c(O)ccc2occ(C(=O)c3cc(OC)ccc3OC)c12", 97]
]}

Now, please, on to the next compound.
Please supply the value of reported viability at 28.5 h, 10 µM for the item COc1ccc(Oc2cncc(OC3CCN(CCCn4c(=O)[nH]c5ccccc54)C3)n2)cc1OC (centres unmarked) 97.6
